# literature pull: UniProtKB P0DMS8 Ki
Reported Property: Ki (µM)

Sample answers from the record:
COc1ccc(-c2csc(NC3OC(=O)c4c3ccc(OC)c4OC)n2)cc1 (stereo not given)	1.3
O=C(Nc1nn(-c2ccccc2)c(=O)c2ccccc12)c1ccccc1	1.1
CNc1nc(-n2cc(-c3cccnc3)cn2)nc2c1ncn2C1O[C@H](CO)[C@@H](O)[C@H]1O (stereo not given in full)	0.002
CC(C)CCn1cc2c(nc(NC(=O)C(c3ccccc3)c3ccccc3)n3nc(-c4ccco4)nc23)n1	0.00586
CNC(=O)[C@@]12C[C@@H]1[C@@H](n1cnc3c(NC)nc(-n4cc(-c5ccc(Br)s5)nn4)nc31)[C@H](O)[C@@H]2O	0.00058

(I) COc1ccn2c(c1)nc1c2c(=O)n(CC2CC2)c(=O)n1Cc1ccc(Cl)cc1
(II) O=c1c2c(nc3ccccn32)n(Cc2ccccc2)c(=O)n1CC1CCCCC1
(III) O=C(O)COc1ccc(C(=O)Nc2nc(-c3ccccc3)ns2)cc1
Input line: Arrange these 3 compounds in increasing order of Ki. Answer format: the labels, in the requested order.
Output line: I, II, III

(P) O=C(Nc1nc(-c2ccccn2)cs1)C1CCCC1
(Q) Cc1ccccc1OCC(=O)Nc1nnc(-c2ccccc2)[nH]1
Input line: Consider entries P and Q . Which has the numerically lower Ki? State the label of the item chosen.
Output line: Q

---

# Tested On: Adenosine receptor A3 (Homo sapiens)
# Sequence (P0DMS8 whole entry): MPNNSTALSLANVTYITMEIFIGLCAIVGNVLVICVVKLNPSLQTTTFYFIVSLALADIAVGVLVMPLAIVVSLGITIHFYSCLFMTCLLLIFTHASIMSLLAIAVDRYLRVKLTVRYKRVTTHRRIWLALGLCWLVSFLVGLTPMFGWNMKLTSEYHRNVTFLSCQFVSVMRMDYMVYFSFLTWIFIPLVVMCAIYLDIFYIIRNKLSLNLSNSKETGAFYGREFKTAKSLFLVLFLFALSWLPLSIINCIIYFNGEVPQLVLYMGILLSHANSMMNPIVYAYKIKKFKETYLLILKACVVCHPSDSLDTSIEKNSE
pKi: −log10 of the molar value.
Below are pKi values for Adenosine receptor A3 (Homo sapiens) collected from several publications.
Reported Property: pKi

Before answering, review these 3 worked examples.
COc1ccc(CC(=O)Nc2nc(Oc3ccccc3)nc3nc(-c4ccco4)nn23)cc1	5.28
CC(C)CCn1cc2c(nc(NC(=O)NC(C)(C)C)n3nc(-c4ccco4)nc23)n1	7.41
CCCn1c(=O)c2[nH]c(-c3cnn(Cc4cccc(C(F)(F)F)c4)c3)nc2n(CCC)c1=O	6.82

(A) CCOC(=O)c1nc2c(=O)n(C(=O)OCC)c3ccccc3n2n1
(B) CCC1CN2C(=O)N(Cc3ccccc3)c3nc(-c4cc(OC)nn4C)[nH]c3C2=N1 (racemic)
(C) Cn1cc2c(nc(NC3CCCCCCC3)n3nc(-c4ccco4)nc23)n1
Input line: Hey, can you sort those compounds up there by pKi, smallest first? Could you list the labels in the order requested?
Output line: A, C, B

(1) CCCn1c(=O)[nH]c2[nH]c(-c3ccc(/C=C/C(=O)OC)cc3)nc2c1=O
(2) Nc1nc(OCCc2c[nH]c3c(Br)cccc23)nc2c1ncn2[C@@H]1O[C@H](CO)[C@@H](O)[C@H]1O
Input line: Between 1 and 2 , whose recorded pKi is greater? Give the chosen item's label as your response.
Output line: 2
(2: 6.85, 1: 5.95)
